The values you see were collected from patent US11447503B2.

- Protocol description: Liver microsomal stability assay (extraction ratio)
- Assay type: in vitro ADME
- Experimental parameters: test compound 1 μM; 0.5 mg/mL liver microsomes, NADPH, 37° C.; species not stated (method: mouse, rat, and human)
Metric: Extraction Ratio @ 1 μM

{"Molecule": "O=C1OCCN1Cc1cncc(-c2ccc(F)c(C(F)F)c2)c1", "Readout value": 0.63}
{"Molecule": "[2H]C([2H])(c1cncc(-c2ccc(F)c(C(F)F)c2)c1)N1CCOC1=O", "Readout value": 0.61}
{"Molecule": "C[C@H]1CN(Cc2cncc(-c3ccc(F)c(C(F)F)c3)c2)C(=O)O1 (single isomer, unassigned)", "Readout value": 0.42}
{"Molecule": "CC(c1cncc(-c2ccc(F)c(C(F)F)c2)c1)N1CCOC1=O (racemic)", "Readout value": 0.42}

----------
- Protocol description: Liver microsomal stability assay (extraction ratio)
- Type: in vitro ADME
- Experimental parameters: test compound 1 μM; 0.5 mg/mL liver microsomes, NADPH, 37° C.; species not stated (method: mouse, rat, and human)
Metric: Extraction Ratio @ 1 μM

{"Molecule smiles": "O=C1OCCCN1Cc1cncc(-c2ccc(F)c(OC(F)F)c2)c1", "Metric": "Extraction Ratio @ 1 μM", "Readout value": 0.49}
{"Molecule smiles": "Cc1ncc(-c2ccc(F)c(C(F)F)c2)cc1CN1CCCOC1=O", "Metric": "Extraction Ratio @ 1 μM", "Readout value": 0.55}
{"Molecule smiles": "O=C1OCCCN1Cc1cncc(-c2ccc(Cl)c(OC(F)F)c2)c1", "Metric": "Extraction Ratio @ 1 μM", "Readout value": 0.61}
{"Molecule smiles": "O=C1OCCCN1Cc1cncc(-c2ccc(F)c(C(F)F)c2)c1", "Metric": "Extraction Ratio @ 1 μM", "Readout value": "<0.298"}
{"Molecule smiles": "Cc1ncc(-c2ccc(F)c(C(F)F)c2)cc1CN1CCOC1=O", "Metric": "Extraction Ratio @ 1 μM", "Readout value": 0.60}

----------
- Subject of test: human GluN1/GluN2B NMDA receptors (Homo sapiens, UniProt Q05586+Q13224)
- Sequence (Q13224 27-1484, other chains not shown): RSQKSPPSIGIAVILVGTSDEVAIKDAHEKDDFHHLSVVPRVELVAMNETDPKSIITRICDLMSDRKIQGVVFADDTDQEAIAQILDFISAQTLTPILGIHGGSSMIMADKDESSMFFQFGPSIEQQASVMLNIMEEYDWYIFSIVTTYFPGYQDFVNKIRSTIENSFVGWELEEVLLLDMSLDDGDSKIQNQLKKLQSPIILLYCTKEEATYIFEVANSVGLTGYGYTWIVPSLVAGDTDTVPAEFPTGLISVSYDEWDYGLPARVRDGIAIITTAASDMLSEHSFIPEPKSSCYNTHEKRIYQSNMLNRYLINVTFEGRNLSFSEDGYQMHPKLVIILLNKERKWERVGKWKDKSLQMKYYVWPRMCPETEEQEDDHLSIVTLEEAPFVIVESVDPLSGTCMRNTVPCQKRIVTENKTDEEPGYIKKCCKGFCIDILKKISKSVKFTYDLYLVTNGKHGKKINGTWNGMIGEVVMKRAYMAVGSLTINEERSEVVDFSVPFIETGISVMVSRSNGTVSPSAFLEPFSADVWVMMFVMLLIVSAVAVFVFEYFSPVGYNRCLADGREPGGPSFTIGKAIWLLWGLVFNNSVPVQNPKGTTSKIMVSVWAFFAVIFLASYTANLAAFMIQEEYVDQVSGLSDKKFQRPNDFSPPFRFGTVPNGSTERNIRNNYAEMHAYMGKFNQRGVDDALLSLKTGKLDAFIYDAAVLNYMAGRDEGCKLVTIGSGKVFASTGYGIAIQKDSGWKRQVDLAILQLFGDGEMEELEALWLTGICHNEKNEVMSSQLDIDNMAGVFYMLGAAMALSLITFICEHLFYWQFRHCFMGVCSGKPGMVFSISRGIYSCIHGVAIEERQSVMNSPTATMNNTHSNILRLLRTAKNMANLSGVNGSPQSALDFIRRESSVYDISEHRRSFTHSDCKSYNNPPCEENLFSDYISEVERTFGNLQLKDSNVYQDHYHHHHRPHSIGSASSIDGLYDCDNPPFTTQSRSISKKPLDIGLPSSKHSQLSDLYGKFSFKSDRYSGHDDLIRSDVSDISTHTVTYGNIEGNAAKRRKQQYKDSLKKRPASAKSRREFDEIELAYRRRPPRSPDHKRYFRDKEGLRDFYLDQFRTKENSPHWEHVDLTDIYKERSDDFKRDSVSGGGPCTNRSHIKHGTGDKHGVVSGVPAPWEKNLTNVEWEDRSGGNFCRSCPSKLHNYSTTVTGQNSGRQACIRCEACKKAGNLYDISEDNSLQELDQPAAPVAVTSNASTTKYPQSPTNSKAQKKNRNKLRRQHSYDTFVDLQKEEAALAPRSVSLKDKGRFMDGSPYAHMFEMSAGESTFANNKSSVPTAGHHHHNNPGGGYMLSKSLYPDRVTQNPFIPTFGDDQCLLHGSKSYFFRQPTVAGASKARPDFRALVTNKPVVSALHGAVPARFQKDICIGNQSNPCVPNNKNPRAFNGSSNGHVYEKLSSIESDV
- Protocol description: Cell-based calcium flux (FLIPR) assay on cloned human GluN1/GluN2B ion channels expressed in mammalian cells
- Experimental parameters: standard assay; glutamate ~EC40, 10 μM glycine; stable Tet-On cell line
In this section, each of the compounds is paired with its reported IC50.

{"Compound": "COc1ncc(-c2ccc(F)c(Cl)c2)cc1CN1CCOC1=O", "Measurement unit": "nM", "IC50": 32}
{"Compound": "C[C@@H]1COC(=O)N1Cc1cc(-c2ccc(F)c(C(F)F)c2)cnc1OC(F)F", "Measurement unit": "nM", "IC50": 176}
{"Compound": "C[C@@H]1CN(Cc2cncc(-c3ccc(F)c(C(F)F)c3)c2)C(=O)O1 [Example 33]", "Measurement unit": "nM", "IC50": 16}
{"Compound": "Cc1ncc(-c2ccc(F)c(C(C)(F)F)c2)cc1CN1CCOC1=O", "Measurement unit": "nM", "IC50": 32}
{"Compound": "Cc1ncc(-c2ccc(F)c(OC(F)F)c2)cc1CN1CC2(CC2)OC1=O", "Measurement unit": "nM", "IC50": 52}

----------
- Subject of test: human GluN1/GluN2B NMDA receptors (Homo sapiens, UniProt Q05586+Q13224)
- Protocol description: Cell-based calcium flux (FLIPR) assay on cloned human GluN1/GluN2B ion channels expressed in mammalian cells
- Experimental parameters: standard assay; glutamate ~EC40, 10 μM glycine; stable Tet-On cell line
In this section, each of the compounds is paired with its reported IC50.

{"Compound": "Cc1ncc(-c2ccc(F)c(C(F)F)c2)cc1CN1CC(C)(C)OC1=O [Example 93]", "Censoring qualifier": "=", "IC50 [nM]": 526}
{"Compound": "CC(C)C1CN(Cc2cncc(-c3ccc(F)c(OC(F)F)c3)c2)C(=O)O1 (racemic) [Example 14]", "Censoring qualifier": "=", "IC50 [nM]": 97}
{"Compound": "COc1ncc(-c2ccc(Cl)c(C(F)F)c2)cc1CN1CCOC1=O [Example 115]", "Censoring qualifier": "=", "IC50 [nM]": 10}
{"Compound": "Cc1ncc(-c2ccc(F)c(OC(F)F)c2)cc1CN1C(=O)OCC1C (single isomer, unassigned) [Example 82]", "Censoring qualifier": "=", "IC50 [nM]": 66}
{"Compound": "CC(C)C1CN(Cc2cncc(-c3ccc(F)c(OC(F)F)c3)c2)C(=O)O1 (single isomer, unassigned) [Example 16]", "Censoring qualifier": "=", "IC50 [nM]": 52}
{"Compound": "CC(C)[C@@H]1COC(=O)N1Cc1cncc(-c2ccc(F)c(C(F)F)c2)c1 [Example 31]", "Censoring qualifier": ">", "IC50 [nM]": 3000}
{"Compound": "Cc1ncc(-c2ccc(F)c(OC(F)F)c2)cc1CN1C(=O)OCC1C (single isomer, unassigned) [Example 83]", "Censoring qualifier": "=", "IC50 [nM]": 30}
{"Compound": "Cc1ncc(-c2ccc(F)c(C(F)F)c2)cc1CN1CC2(CCC2)OC1=O [Example 91]", "Censoring qualifier": "=", "IC50 [nM]": 84}

----------
- Subject of test: human GluN1/GluN2B NMDA receptors (Homo sapiens, UniProt Q05586+Q13224)
- Protocol description: Cell-based calcium flux (FLIPR) assay on cloned human GluN1/GluN2B ion channels expressed in mammalian cells
- Experimental parameters: standard assay; glutamate ~EC40, 10 μM glycine; stable Tet-On cell line
// assign Y if IC50 falls strictly below 40 nM, else N (ties count as N)

{"Compound": "O=C1OC2(CC2)CN1Cc1cncc(-c2ccc(F)c(C(F)F)c2)c1", "Class name": "Y"}
{"Compound": "C[C@@H]1COC(=O)N1Cc1cc(-c2ccc(F)c(OC(F)F)c2)cnc1C(C)(F)F", "Class name": "N"}
{"Compound": "COc1ncc(-c2ccc(F)c(C)c2F)cc1CN1CCOC1=O", "Class name": "N"}
{"Compound": "Cc1ncc(-c2ccc(F)c(C(F)F)c2)cc1CN1CC2(CC2)OC1=O", "Class name": "Y"}
{"Compound": "COc1ncc(-c2cc(C)c(F)c(F)c2)cc1CN1CCOC1=O", "Class name": "Y"}
{"Compound": "Cc1ncc(-c2ccc(F)c(C)c2F)cc1CN1CCOC1=O", "Class name": "Y"}
{"Compound": "CC(c1cncc(-c2ccc(F)c(C(F)F)c2)c1)N1CCCOC1=O (racemic)", "Class name": "N"}
{"Compound": "Cc1ncc(-c2cccc(Cl)c2)cc1CN1CCCOC1=O", "Class name": "N"}
{"Compound": "CC(C)C1CN(Cc2cncc(-c3ccc(F)c(OC(F)F)c3)c2)C(=O)O1 (single isomer, unassigned) [Example 15]", "Class name": "N"}
{"Compound": "C[C@@H]1CN(Cc2cc(-c3ccc(F)c(C(F)F)c3)cnc2C(C)(F)F)C(=O)O1", "Class name": "N"}
{"Compound": "CC(F)(F)c1ncc(-c2ccc(F)c(C(F)F)c2)cc1CN1CCOC1=O", "Class name": "N"}
{"Compound": "Cc1ncc(-c2ccc(F)c(C)c2F)cc1CN1CCCOC1=O", "Class name": "Y"}
{"Compound": "Cc1cc(-c2cnc(C)c(CN3CCOC3=O)c2)ccc1F", "Class name": "Y"}
{"Compound": "Cc1ncc(-c2cccc(OC(F)F)c2)cc1CN1CCCOC1=O", "Class name": "N"}
{"Compound": "O=C1OCCN1Cc1cncc(-c2ccc(OC(F)(F)F)c(F)c2)c1", "Class name": "N"}
{"Compound": "Cc1ncc(-c2ccc(C(F)F)s2)cc1CN1CCOC1=O", "Class name": "N"}
{"Compound": "COc1ncc(-c2cccc(Cl)c2)cc1CN1CCOC1=O", "Class name": "N"}
{"Compound": "COc1ncc(-c2cccc(C(C)(F)F)c2)cc1CN1CCOC1=O", "Class name": "N"}
{"Compound": "O=C1OCCCN1Cc1cc(-c2ccc(F)c(C(F)F)c2)cnc1C(F)F", "Class name": "N"}
{"Compound": "CC(F)(F)c1ncc(-c2ccc(F)c(OC(F)F)c2)cc1CN1CCCOC1=O", "Class name": "N"}
{"Compound": "Cc1cc(-c2cnc(C)c(CN3CCCOC3=O)c2)ccc1F", "Class name": "Y"}
{"Compound": "COc1ncc(-c2ccc(F)c(C(F)F)c2)cc1CN1CCOC1=O", "Class name": "Y"}
{"Compound": "COc1ncc(-c2ccc(Cl)c(Cl)c2)cc1CN1CCOC1=O", "Class name": "Y"}
{"Compound": "Cc1ncc(-c2ccc(F)c(OC(F)F)c2)cc1CN1CCOC1=O", "Class name": "Y"}
{"Compound": "Cc1ncc(-c2ccc(F)c(C(F)F)c2)cc1CN1C[C@@H](C)OC1=O", "Class name": "N"}
{"Compound": "Cc1cc(-c2cnc(C)c(CN3CCCOC3=O)c2)cc(F)c1F", "Class name": "Y"}
{"Compound": "C[C@H]1COC(=O)N1Cc1cc(-c2ccc(F)c(C(F)F)c2)cnc1C(C)(F)F", "Class name": "N"}
{"Compound": "Cc1ncc(-c2cccc(C(F)F)c2)cc1CN1CCCOC1=O", "Class name": "N"}
{"Compound": "O=C1OCCN1Cc1cncc(-c2ccc(Cl)c(OC(F)F)c2)c1", "Class name": "Y"}
{"Compound": "Cc1ncc(-c2ccc(F)c(OC(F)F)c2)cc1CN1CC(C)OC1=O (stereo in doubt) [Example 86]", "Class name": "Y"}
{"Compound": "COc1ncc(-c2ccc(F)c(C(C)(F)F)c2)cc1CN1CCOC1=O", "Class name": "Y"}
{"Compound": "[2H]C([2H])(c1cncc(-c2ccc(F)c(C(F)F)c2)c1)N1CCOC1=O", "Class name": "Y"}
{"Compound": "O=C1OC2(COC2)CN1Cc1cncc(-c2ccc(F)c(C(F)F)c2)c1", "Class name": "Y"}
{"Compound": "CC(F)(F)c1ncc(-c2ccc(F)c(OC(F)F)c2)cc1CN1CC2(CCC2)OC1=O", "Class name": "N"}
{"Compound": "O=C1OCCCN1Cc1cncc(-c2ccc(F)c(OC(F)F)c2)c1", "Class name": "Y"}
